Target: single beta-lactamase in K. pneumoniae cell extracts (Klebsiella pneumoniae, UniProt P0AD64, E235K/G234S)
Experiment: Spectrophotometric hydrolysis assay on crude beta-lactamase extracts
Details: K. pneumoniae Pit 82 extract, beta-lactamase pI 8.2; 100 μM substrate
Entries and their Hydrolysis

- CC(C)(O/N=C(\C(=O)N[C@@H]1C(=O)N2C(C(=O)[O-])=C(C[n+]3ccccc3)CS[C@H]12)c1csc(N)n1)C(=O)O: 0.2 nmol of substrate hydrolyzed/m
- O=C(Cc1cccs1)N[C@@H]1C(=O)N2C(C(=O)O)=C(/C=C/c3ccc([N+](=O)[O-])cc3[N+](=O)[O-])CS[C@H]12: 136 nmol of substrate hydrolyzed/m

Could you now look at the following compound, please?
-- ask Would you kindly share the measured Hydrolysis for `CO/N=C(\C(=O)N[C@@H]1C(=O)N2C(C(=O)O)=C(COC(C)=O)CS[C@H]12)c1csc(N)n1` ?
-- reply 11 nmol of substrate hydrolyzed/m

meta.source: patent US6893846B2
